System: panel of hematologic and solid cancer lines
protocol_details: 6-day in vitro growth/death assay
Format: cell-based, human
experimental_parameters: Homo sapiens, LoVo; read-out: gIC50
measurement_kind: pIC50
Answer as the number alone; pIC50 is minus log10 of concentration in mol/L.

*Q* For the compound O=C(NC[C@H](O)CN1CCc2ccccc2C1)c1ccnc(NC2CCC2)c1 , what pIC50 is on record?
*A* 6.31

----------
System: panel of 240 cancer cell lines
protocol_details: 10-day growth/death assay (Eurofins panel)
Format: cell-based
experimental_parameters: Homo sapiens, EB-3, EB-3; read-out: gIC50
measurement_kind: IC50 (nM)
Just the number please, in nM, no unit attached.

*Q* For the compound O=C(NC[C@H](O)CN1CCc2ccccc2C1)c1ccnc(NC2CCC2)c1 , what IC50 is on record?
*A* 299

----------
# IC50 annotations
Test system: panel of hematologic and solid cancer lines
protocol_details: 6-day in vitro growth/death assay
Assay type: cell-based, human
experimental_parameters: SF295; read-out: gIC50
Just the number please, in µM, no unit attached.

molecule	target_system	numeric_value
O=C(NC[C@H](O)CN1CCc2ccccc2C1)c1ccnc(NC2CCC2)c1 [GSK3203591]	panel of hematologic and solid cancer lines	9.84

Would you kindly look at the next entry?
*Q* For the molecule CC(=O)N1CCC(Nc2cc(C(=O)NC[C@H](O)CN3CCc4ccccc4C3)ncn2)CC1 [GSK3326595] , what IC50 is on record?
*A* 24.7

----------
Tested on: panel of hematologic and solid cancer lines
protocol_details: 6-day in vitro growth/death assay
Type: cell-based, human
experimental_parameters: Homo sapiens, COLO 320DM, COLO-320DM; read-out: gIC50
measurement_kind: pIC50
Answer as the number alone; pIC50 is minus log10 of concentration in mol/L.

*Q* For the molecule O=C(NC[C@H](O)CN1CCc2ccccc2C1)c1ccnc(NC2CCC2)c1 , what pIC50 is on record?
*A* 5.63

----------
# IC50 annotations
System: panel of hematologic and solid cancer lines
protocol_details: 6-day in vitro growth/death assay
Assay type: cell-based, human
experimental_parameters: Homo sapiens, SF-539, SF539; read-out: gIC50
Just the number please, in nM, no unit attached.

molecule	numeric_value
CC(=O)N1CCC(Nc2cc(C(=O)NC[C@H](O)CN3CCc4ccccc4C3)ncn2)CC1 [GSK3326595]	60.9

*Q* For the molecule O=C(NC[C@H](O)CN1CCc2ccccc2C1)c1ccnc(NC2CCC2)c1 [GSK3203591] , what IC50 is on record?
*A* 75

----------
Test system: panel of hematologic and solid cancer lines
protocol_details: 6-day in vitro growth/death assay
Format: cell-based, human
experimental_parameters: Homo sapiens, L-363, L363; read-out: gIC50
measurement_kind: IC50 (nM)
Just the number please, in nM, no unit attached.

*Q* For the compound O=C(NC[C@H](O)CN1CCc2ccccc2C1)c1ccnc(NC2CCC2)c1 , what IC50 is on record?
*A* 65.7

----------
Test system: panel of hematologic and solid cancer lines
protocol_details: 6-day in vitro growth/death assay
Type: cell-based, human
experimental_parameters: Homo sapiens, LC-1sq; read-out: gIC50
measurement_kind: IC50 (µM)
Just the number please, in µM, no unit attached.

*Q* For the compound O=C(NC[C@H](O)CN1CCc2ccccc2C1)c1ccnc(NC2CCC2)c1 [GSK3203591] , what IC50 is on record?
*A* 7.59
